This collection of values is drawn from paper PMC5429603.

# target-under-test: human URAT1 h-V18L (Homo sapiens, UniProt Q96S37, V18L)
# experiment-description: URAT1 activity assay, h-V18L
# condition-summary: TM1 point mutant, read-out: Verinurad affinity (IC50)
# Source text: Human URAT1 (GenBank BC053348.1, Homo sapiens SLC22A12), rat URAT1 (NCBI NM_001034943.1, Rattus norvegicus Slc22a12) and human OAT4 (NCBI NM_018484.2, Homo sapiens SLC22A11) genes were purchased from Origene Technologies, Inc. and subcloned into pCMV6/neo using NotI. Where indicated, controls transfections used pCMV6/neo. Mutants were produced by site-directed mutagenesis using the QuikChange Lightning Multi Site-Directed Mutagenesis Kit (Agilent Technologies). […]
measurement-name: pIC50
Scale: pIC50 equals -log10([C]), with [C] in mol/L.

-- ask # returns recorded pIC50 (system: human URAT1 h-V18L (Homo sapiens, UniProt Q96S37, V18L)) for `CC(C)(Sc1ccncc1-c1ccc(C#N)c2ccccc12)C(=O)O`
-- reply 7.59

====

# target-under-test: rat URAT1 r-L29M (Rattus norvegicus, UniProt Q3ZAV1, L29M)
# experiment-description: cell-based
measurement-name: pIC50
Scale: pIC50 equals -log10([C]), with [C] in mol/L.

-- ask Item under review: CC(C)(Sc1ccncc1-c1ccc(C#N)c2ccccc12)C(=O)O [Verinurad] . Reported pIC50?
-- reply 4.54

====

# target-under-test: human URAT1 h-I481M (Homo sapiens, UniProt Q96S37, I481M)
# Sequence (Q96S37 1-553 I481M): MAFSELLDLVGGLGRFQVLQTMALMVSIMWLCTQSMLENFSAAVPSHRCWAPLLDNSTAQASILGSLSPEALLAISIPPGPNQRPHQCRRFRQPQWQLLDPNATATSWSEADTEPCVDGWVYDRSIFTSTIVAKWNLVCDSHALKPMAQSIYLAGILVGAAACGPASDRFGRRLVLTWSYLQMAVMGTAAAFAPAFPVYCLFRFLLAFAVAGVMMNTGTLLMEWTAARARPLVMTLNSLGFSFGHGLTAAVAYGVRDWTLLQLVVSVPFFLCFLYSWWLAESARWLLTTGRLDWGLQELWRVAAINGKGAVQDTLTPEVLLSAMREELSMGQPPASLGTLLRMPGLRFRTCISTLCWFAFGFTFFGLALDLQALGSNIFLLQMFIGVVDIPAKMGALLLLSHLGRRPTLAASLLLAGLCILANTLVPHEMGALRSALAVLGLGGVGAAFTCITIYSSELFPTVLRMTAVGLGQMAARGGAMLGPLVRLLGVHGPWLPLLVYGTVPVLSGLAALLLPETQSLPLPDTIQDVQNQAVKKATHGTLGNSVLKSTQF
# experiment-description: URAT1 activity assay, h-I481M
# condition-summary: TM11 point mutant, read-out: Verinurad affinity (IC50)
measurement-name: IC50 (nM)
// units = nM; emit number, no label

-- ask Item under review: CC(C)(Sc1ccncc1-c1ccc(C#N)c2ccccc12)C(=O)O [Verinurad] . Reported IC50?
-- reply 53

====

# target-under-test: human URAT1-F365Y (Homo sapiens, UniProt Q96S37, F365Y)
# experiment-description: URAT1 activity assay, h-F365Y
# condition-summary: TM7 point mutant, read-out: Verinurad affinity (IC50)
measurement-name: pIC50
Scale: pIC50 equals -log10([C]), with [C] in mol/L.

-- ask Item under review: `CC(C)(Sc1ccncc1-c1ccc(C#N)c2ccccc12)C(=O)O` . Reported pIC50?
-- reply 5.40

====

# target-under-test: human URAT1 h-T21A (Homo sapiens, UniProt Q96S37, T21A)
# experiment-description: URAT1 activity assay, h-T21A
# condition-summary: TM1 point mutant, read-out: Verinurad affinity (IC50)
measurement-name: IC50 (nM)
// units = nM; emit number, no label

-- ask Item under review: `CC(C)(Sc1ccncc1-c1ccc(C#N)c2ccccc12)C(=O)O` . Reported IC50?
-- reply 26

====

# target-under-test: rat URAT1-Y365F (Rattus norvegicus, UniProt Q3ZAV1, Y365F)
# Sequence (Q3ZAV1 1-553 Y365F): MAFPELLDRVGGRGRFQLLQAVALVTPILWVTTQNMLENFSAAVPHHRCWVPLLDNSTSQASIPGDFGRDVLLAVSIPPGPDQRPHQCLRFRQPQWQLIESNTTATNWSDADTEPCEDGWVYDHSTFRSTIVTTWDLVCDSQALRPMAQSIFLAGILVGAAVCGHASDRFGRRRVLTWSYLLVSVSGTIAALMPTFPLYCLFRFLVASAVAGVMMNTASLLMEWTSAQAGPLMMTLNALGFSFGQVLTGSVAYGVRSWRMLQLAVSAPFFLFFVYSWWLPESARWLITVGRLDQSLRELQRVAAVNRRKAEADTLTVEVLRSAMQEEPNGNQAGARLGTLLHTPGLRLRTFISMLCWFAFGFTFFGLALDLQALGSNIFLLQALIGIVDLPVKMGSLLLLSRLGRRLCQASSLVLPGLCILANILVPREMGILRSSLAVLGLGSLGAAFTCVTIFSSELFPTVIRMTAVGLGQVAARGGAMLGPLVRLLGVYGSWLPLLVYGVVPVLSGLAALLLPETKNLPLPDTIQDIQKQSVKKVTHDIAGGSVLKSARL
# experiment-description: URAT1 activity assay, r-Y365F
# condition-summary: TM7 point mutant, read-out: Verinurad affinity (IC50)
measurement-name: IC50 (µM)
// units = µM; emit number, no label

-- ask Item under review: `CC(C)(Sc1ccncc1-c1ccc(C#N)c2ccccc12)C(=O)O` . Reported IC50?
-- reply 2.9

====

# target-under-test: rat URAT1 r-N35S/Y365F (Rattus norvegicus, UniProt Q3ZAV1, N35S/Y365F)
# experiment-description: cell-based
measurement-name: IC50 (nM)
// units = nM; emit number, no label

-- ask # returns recorded IC50 (system: rat URAT1 r-N35S/Y365F (Rattus norvegicus, UniProt Q3ZAV1, N35S/Y365F)) for `CC(C)(Sc1ccncc1-c1ccc(C#N)c2ccccc12)C(=O)O`
-- reply 470

====

# target-under-test: human URAT1 h-L31V (Homo sapiens, UniProt Q96S37, L31V)
# experiment-description: URAT1 activity assay, h-L31V
# condition-summary: TM1 point mutant, read-out: Verinurad affinity (IC50)
measurement-name: IC50
Numeric answer plus unit only.

-- ask # returns recorded IC50 (system: human URAT1 h-L31V (Homo sapiens, UniProt Q96S37, L31V)) for `CC(C)(Sc1ccncc1-c1ccc(C#N)c2ccccc12)C(=O)O`
-- reply 31 nM

====

# target-under-test: rat URAT1 (Rattus norvegicus, UniProt Q3ZAV1)
# experiment-description: URAT1 activity assay, rat URAT1
# condition-summary: rat URAT1 wild type; 14C-uric acid; read-out: IC50, inhibition of transport activity
measurement-name: IC50 (µM)
// units = µM; emit number, no label

-- ask Item under review: `CC(C)(Sc1ccncc1-c1ccc(C#N)c2ccccc12)C(=O)O` . Reported IC50?
-- reply 41

====

# target-under-test: human URAT1 h-C32T (Homo sapiens, UniProt Q96S37, C32T)
# Sequence (Q96S37 1-553 C32T): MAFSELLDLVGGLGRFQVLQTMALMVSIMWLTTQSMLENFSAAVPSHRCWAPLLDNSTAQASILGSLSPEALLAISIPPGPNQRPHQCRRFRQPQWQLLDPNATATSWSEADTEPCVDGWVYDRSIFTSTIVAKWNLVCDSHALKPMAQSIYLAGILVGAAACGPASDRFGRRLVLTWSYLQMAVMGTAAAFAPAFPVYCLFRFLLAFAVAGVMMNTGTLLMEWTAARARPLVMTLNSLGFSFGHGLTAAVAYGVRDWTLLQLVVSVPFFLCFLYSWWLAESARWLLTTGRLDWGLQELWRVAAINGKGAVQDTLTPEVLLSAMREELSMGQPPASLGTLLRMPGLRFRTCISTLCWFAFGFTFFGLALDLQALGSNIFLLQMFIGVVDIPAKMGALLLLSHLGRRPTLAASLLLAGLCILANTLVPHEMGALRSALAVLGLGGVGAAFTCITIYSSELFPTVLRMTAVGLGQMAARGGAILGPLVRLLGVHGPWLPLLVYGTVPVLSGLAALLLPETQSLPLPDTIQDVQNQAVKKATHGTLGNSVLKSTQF
# experiment-description: URAT1 activity assay, h-C32T
# condition-summary: TM1 point mutant, read-out: Verinurad affinity (IC50)
measurement-name: IC50 (nM)
// units = nM; emit number, no label

-- ask # returns recorded IC50 (system: human URAT1 h-C32T (Homo sapiens, UniProt Q96S37, C32T)) for `CC(C)(Sc1ccncc1-c1ccc(C#N)c2ccccc12)C(=O)O`
-- reply 95

====

# target-under-test: rat URAT1 r-Y365F/M481I (Rattus norvegicus, UniProt Q3ZAV1, M481I/Y365F)
# experiment-description: cell-based
measurement-name: pIC50
Scale: pIC50 equals -log10([C]), with [C] in mol/L.

-- ask Item under review: `CC(C)(Sc1ccncc1-c1ccc(C#N)c2ccccc12)C(=O)O` . Reported pIC50?
-- reply 6.23
